The following variants are shown together with reported protein stability index values.
B1: S100A14 (parent)
chain: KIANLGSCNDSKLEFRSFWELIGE

Variants of: B1
test-method-notes: protein stability index of a GFP-peptide fusion (GPS, HEK-293T) (PSI 1-6); higher = more stable;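 also: lentivirally expressed fusions sorted by FACS into six bins by GFP to DsRed ratio, PSI derived from sequencing read proportions per bin multiplied by bin number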
condition: c terminus: a fixed tail appended
Reply with just the number.

var	protein stability index
N4A	2.01
R16I	1.97
W19I	1.97

Documented protein stability index of G23A : 1.89

protein stability index measured on G6C = 2.45

// sample K1H , its protein stability index was 1.61

So, L21K ? Its protein stability index was 1.86

S11V yielded protein stability index of 2.42

// protein stability index value for S7N : 2.32

Value of protein stability index reported for the variant I2F is 1.55

What the record says about F15D : protein stability index is 2.51

Memo: I22A , reported protein stability index: 2.59

In plain terms, F18T has a documented protein stability index of 1.89

# protein stability index of N9H = 1.8

Please fill in: protein stability index reported for E14N = 1.54

The measured protein stability index associated with N4D reads 1.73

Please fill in: protein stability index reported for K12F = 2.76

protein stability index reported for this variant L5C : 2.27

Data point: S11C ; protein stability index = 2.62

Lab book: protein stability index of F15Y noted as 1.63

Input L13W . Output protein stability index: 2.31
